- ASSAY_SYSTEM: Cholecystokinin receptor (Mus musculus, UniProt O08786+P56481)
- RUN_DESCRIPTION: Binding affinity measured by inhibiting [3H]Boc[Nle28,31]CCK27-33 specific binding to Cholecystokinin receptor in mouse brain membranes at a KD concentration of 0.19 nM
- Type: cell membranes, Membrane
Non-standard residues stand in square brackets, D forms with d. Residues, ends and D or L forms follow the SMILES beside them. *: point of attachment. sY = N[C@@H](Cc1ccc(OS(=O)(=O)O)cc1)C(=O)O; Nle = CCCC[C@H](N)C(=O)O; Boc = CC(C)(C)OC(=O)*
Answer each item with its documented Ki.
Write down the numeric answer in nM and omit the unit.

Input: // fetch Ki given entry CCCC[C@H](NC(=O)[C@H](Cc1c[nH]c2ccccc12)NC(=O)[C@@H](CCCCN)NC(=O)[C@H](CCCC)NC(=O)[C@H](Cc1ccc(OS(=O)(=O)O)cc1)NC(=O)[C@H](CC(=O)O)NC(=O)OC(C)(C)C)C(=O)N[C@@H](CC(=O)O)C(=O)N[C@@H](Cc1ccccc1)C(N)=O
Output: 300

Input: Answer with reported Ki of CCCC[C@H](NC(=O)[C@H](Cc1ccc(OS(=O)(=O)O)cc1)NC(=O)OC(C)(C)C)C(=O)NCC(=O)N[C@@H](Cc1c[nH]c2ccccc12)C(=O)N[C@@H](CCCC)C(=O)N[C@@H](CC(=O)O)C(=O)N[C@@H](Cc1ccccc1)C(N)=O (Boc-[sY][Nle]GW[Nle]DF-NH2)
Output: 0.191

Input: Provide measured Ki value, entry: CSCC[C@H](NC(=O)[C@H](Cc1ccc(OS(=O)(=O)O)cc1)NC(=O)[C@@H](N)CC(=O)O)C(=O)NCC(=O)N[C@@H](Cc1c[nH]c2ccccc12)C(=O)N[C@@H](CCSC)C(=O)N[C@@H](CC(=O)O)C(=O)N[C@@H](Cc1ccccc1)C(N)=O [SINCALIDE]
Output: 0.491
